assay: yeast display, Sf9 membrane polyspecificity reagent, FACS + sequencing; frameworks hold sequencing errors
measurement-name: polyreactivity (PSR sort gate)

Example entries begin here.
QVQLVESGGGLVQAGGSLRLSCAASGSTFEYNAKGWYRQAPGKERELVASSTNYADSVKGRFTISRDNAKNTVYFQMNSLKPEDTAVYYCAARSLRYPYDYWGQGTQVTVSS; low polyreactivity
QVQLVESGGGLVQAGGSLRLSCADSGSILVAKGMGWYRQAPGKESELVAGITTRGGNTYYADSVKGRFTISRDNAKNTVYLQMNSLKPEDTAVYYCAADHLSYRRRYEYWGQGTQVTVSS; low polyreactivity
QVQLVESGGGIVQAGGILRLSCAASGSTFAGNGMGWYRQAPGKERELVAGIDVTGGSKYYADSVKGRYTISRDNAKNTVYLQMNSLKPEDTAVFDCNARYVYHSSFAGFDYWGQGTQVTVSS; low polyreactivity
QVQLVESGGGLVQAGGSLRLSCAASGFTFRYYAMGWYRQEPGKERELVAAISRSDSRTYADSVKGRFTISRDNAMNTVYIQMNSLNPEDTAVYYCNARYGYSSYVFIFDYWGQGTQVTVSS; high polyreactivity
QVQLVESGGGLVQAGGSLRLSCAASGSIFYTNAMGWYRQAPGKERELVAAITGGGRTNYADSLKGRFTISRDNAKNTVYLQMNSLKPEDNAVYYCAARTGYRYYTGDYWGQGTQVTVSS; high polyreactivity
QVQLVESGGGLVQAGGSLRVSCAASGSIFDSNAMGWYRQAPGKERELVASITSSGGSTYYADSVKGRFTISRDNAKNTVYLQMNSLKPEDTAVYYCAKRAWTGYGYYYWGQGTQVTVSS; high polyreactivity
QVQLLESGRGLDQAGGSLRLSCAASGGTYKTNPMGMYRQAPGKEMELVAAITGSGTSTYYADSVKGRFTISRDYAKNTVYLQMNSLNPEDTAVYYCAADKLYHPGIGDDYWGQGTQETVSS; low polyreactivity
QVQLVESGGGLVQAGGSLRLSCAASGRTFAYNAMGWYRQAPGKERELVAAISGNGGRTYYADSVKGRFTISRDNAKNTVYLQMNSLKPEDTAVYYCNAAVGYYSYSYYTKVGVDYWGQGTQVTVSS; high polyreactivity
QVQLVESWGGLVQAGGTLSLSCADSGLIFYFYDRGWYRQAPGKESEFVATISSTGGSTYYADSVKGRFTISRDNAKNTVYLQMNSVKPEDTAVYVCADRGWFPGFRYDYWGQGTQVTVSS; low polyreactivity
QVQLVESGGGLVQAGGSLRLSCAASGRIFGYYAMGWYRQAPGKERELVAGIDWSGGNTYYADSVKGRFTISRDNAKNTVYLQMNSLKPEDTAVYYCNTEGGRDTAWYDYWGQGTQVTVSS; low polyreactivity

Next sequence, please.
## Input Param item = "QVQLVESGGGLVQAGGSLRLSCAASGSIFYYNAMGWYRQAPGKERELVAAISWGDGITYYADSVKGRFTISRDNAKNTVYLQMNSLKPEDTAVYYCAVDYYYLPYEYWGQGTQVTVSS" ; retrieve measured polyreactivity (PSR sort gate).
## Output high polyreactivity

----------
experiment: yeast display, Sf9 membrane polyspecificity reagent, FACS + sequencing; frameworks hold sequencing errors
measurement-name: polyreactivity (PSR sort gate)

Here's what some known entries look like.
QVQLVESGGGLVQAGGSLRLSCAASGIIFDFYAMGGYRQAPGKEREFVAAINSGSGSTYYADSVKGRFTISRDNAKNTVYLQMNSLKPVDTAVYYCAADGLSATLTWYSYDYWGQGTQVTVSS; low polyreactivity
QVQLVESGGGLVQAGGSLRLSCAASGSTFYLYAMGWYRQAPGKERELVARISSSGGRTYYADSVKGRFTISRDNAKNTVYLQMNSLKPEDTAVYYCAASSFTSSYNYWGQGTQVTVSS; high polyreactivity
QVQLQESGGGLMQAGGSQRLSCAASGSISYYSDRGWYRQAPGKEREFVAGIGYGTTTNYADSVKGRFTTSRDNAKNTVYLQMICMKPEDTAVYYCAAYQGNGYEFYYWGQGTQVTVRS; low polyreactivity
QVQLVESGGGLVQAGGSLRLSCAASGRIFLGNAMGWYRPAPGKERELVAAITNGGGSTYYADSVNGRFTISRDNAKNTVYLQMNSLKPEDTAVYYCAAQRWTVKYNYWGQGTQVTVSS; high polyreactivity
HVQLVESGGGLVQAGGSLRLSCAASGRSLSDYAMGWYRQAPGKERELVATITSGDSTNYADSVKGRFTISRDNEKNTVYLQMNSLKPEDTEVYYCNADRFADYDYWGQGTQVTVSS; low polyreactivity

Each of the following entries comes with a recorded value; kindly state polyreactivity (PSR sort gate) for each.
1. QFQLVESGGGLVQAGGSLRLSCSSSGSIFGAYDMGWYRQAPGKERELVAAITSVGSTYYADSVKGRFTISRDNAKNTVYLQMNSLKPEDTAVYDCAKRQWRPTYRYGYWGQGTQVTVSW
2. QVQLVVSGGGLVQAGGSLRLSCAASGSIFVPYAMGWYRQAPGKEREFVAAITRSSGSTYYADSVKGRFTISRDNAKNTVYLQMNSLKPEDTAVYYCAADFLLEFDYWGQGTQVTVSS
3. QVQLEESGGGLVQAGGSLRLRCAASGRTFGYYAMGWYRQAPGKERQLVASITSGGRTYYADSVKGRFTISRDNSKNTVYLQMNSLKPEDTAVFYCAADRFGIGGKSGNDYWGQGTQVTVSS

## Output
1. low polyreactivity
2. low polyreactivity
3. high polyreactivity

Working through the 3 sequences below one at a time, give polyreactivity (PSR sort gate) for each.
1. QVQLVESGGGLVQAGGSLRLSCAASGLTFYVYAMGWYRQAPGKERELVAAISSGGRTYYADSVKGRFTISRDNAKNTVYLQMNSLKPEDTAVYYCAAVRHRNYGYWGQGTQVTVSS
2. QVQLVESGGGLVQAGGSLRLSSAASGSTFGPYPMGWYRPAPGKERELVATISSGGSTYYADSVKGRFTISRDNAKNTVYLQMNSLKPEDTAVYYCAARYWSIYDYWGQGTQVTVSS
3. QVQLVESGGGLVQAGASLRLSCAASGCTFVVNAMGWYRQAPGKERELVAAITDGSSTNYADSVKGRFTISRDNAKYTVYLQMTRLIRQDTAVYFCAAVPYIDLDDINVEHPQYGYWGQGTQVTVSS

## Output
["high polyreactivity", "low polyreactivity", "low polyreactivity"]

----------
experiment: yeast display, Sf9 membrane polyspecificity reagent, FACS + sequencing; frameworks hold sequencing errors
measurement-name: polyreactivity (PSR sort gate)

QVQLVESGGGLVQAGGSLRLSCAASGSTFRGYAMGWYRQAPGKERELVASISWNGTSTYYADSVKGRFTISRDNAKNTVYLQMNSLKPEDTAVYYCNVRFNYRGTYDYWGQGTQVTVSS; low polyreactivity
QVQLVESGGGLVQAGGSLPLSCAASGRTFWDNAMGWYRQAPGKERELVATITSGDSTNYADSVKWRFTISRDNAKNTVYLQMNSLKPEDTAVYDCARVIVFDAYEFDYWGQGTQVTVSS; low polyreactivity
QVQLVESGAGLVQAGGSLRISCAASGRTFGLNDMAWYRPAPGKERELVAAITWSDDDTYYADSVKGRFTISRDNAKNTVYLQMNSLKPEDTAVYYCAKSRYDYTKTECGYWGQGTEVTVSS; low polyreactivity
QVQHVESAGGLVQAGGSLRLSCAASGGIFWVYAMGWSRQAPGTERELVAAISNSDTSTSYADSVKGRFTISRDNAKNTVYLQMNSLKPEDTAVYYCNAVSPSLSGDYWGQGTQVTVSS; low polyreactivity

----------
experiment: yeast display, Sf9 membrane polyspecificity reagent, FACS + sequencing; frameworks hold sequencing errors
measurement-name: polyreactivity (PSR sort gate)

Worked cases, polyreactivity (PSR sort gate) given:
QVQLVESGGGLVQAGGSLRLSCAASGSIFPYNVMGWYRQAPGKERELVAAISTRGGRTYYADSVKGRFTISRDNAKNTVYLQMNSLKPEDTAVYYCNTVVLRYLYNYWGQGTQVTVSS; high polyreactivity
QVQLVESGGGLVQAGGSLRLSCAASGSTFGWYTMGWYRQAPGKERELVATISYGGGITNYADSVKGRFTMSRDNAKNTVDLQMNSLKPEDTAVYYWAVDNTGRSWPYDYWGQGTQVTVSS; low polyreactivity
QVQLVESGGGLVQAGGSLRLSCAASGRIFDLNAMGWYRQAPGKERELVAVIDSYGSTYYADSVKGRFTISRDNAKNTVYLQMNSQKPEDSAVYYCTKYWYSRHVRYWAYYAEQRYDYWGQGTQVTVSS; low polyreactivity
QVQIVESGGGLVQAGGSLRLSCDASGFIFYYYAMGWYRQAPGKERELVATITSGGGSTYYADSVKGRFTISRDNAKNTVYLQMNSLKPEDTAVYYCAAKGPYYKSSRTGDYWGQGTQVTVSS; low polyreactivity
QFQLVESGGGLVQAGGSLRLSCAASGRIFFSNAMGWYRQAPGKERELVASITGGDDTNYADSVKGRFTISRDNAKNSVYLQMNSLKPEDTAFYYCAARAIPSYRWVYRFAPKYDYWGQGTQVTVSS; low polyreactivity
QVQLVESGGGLVQAGGSLRLSCAASGSTFGYYAMGWYRQAPGKERELVASINWRGDSTYYADSVKGRFTISRDNAKNTVYLQMNSLKPEDTAVYYCNKAYRRRYVQGEYWGQGTQVSVSS; high polyreactivity
QVQLVESGGGLFQAGGSLRLSCAASGRTFHGYAMGWYRQAPGKERELVARINWSDGRTYYADSVKGRFTISRDNAKNTVYLQMNSLKPEDTAVYYCAADKTVSYAPAWYYYWGQGTQVTVSS; low polyreactivity
QVQLVESGGGLVQAGGSLRLSCAASGRIFWVYAMGWYRQAPGKERELVAAIDWSDGITYYADSVKGRFTISRDNAKNTVYLQMNSRKPEDTAVYYCGAEYVIYQTYNYWGQGTQVTVSS; high polyreactivity

Report polyreactivity (PSR sort gate) for every entry below.
1. QVQLVESGGGLVQAGGSLRLSCAASVRIIDINAMGWSRQAPRKEREFVAGITSVGSTNYADSEKGRFTISRDNAKNTDYLDMNSLKPEDTAVYYCAADTSVHSEVDYWGQGTQVTVSS
2. QVQLVESGGGCVQAGGSLRLSCAASGFIFEQNAKGWYRQARGKEWELVARISWRGGSTYYADSEKGRFTISRDKAKITVYLQMNSLKPEDSAVYYCNAHEVDYFGYYPSDYWGQGTQVTVSS
3. QVQLVESGGGLVQAGGSLRLSCAASGSTFYRYAMGWYRQAPGKERELVAAITWSGGSTYYADSVKGRFTISRDNAKNTVYLQMNSLKPEDTAVYYCNAVARYYYKDQTIIHSPREDYWGQGTQVTVSS

## Output
["low polyreactivity", "low polyreactivity", "low polyreactivity"]
